All values here come from patent US11447470B2.

Test: Cytotoxicity experiment (MTT method) on C8166 cells
Type: cell-based
Settings: human
CC50 at 3 days values for the molecules below.

Reference set, count: 2
- Molecule: "CCc1c(Cc2ccccc2)nc(SCc2cc(-c3ccc(F)c(F)c3)[nH]n2)[nH]c1=O [Compound I-58]"
  CC50 at 3 days: "81 µM"
- Molecule: "CCc1c(Cc2ccc3c(c2)OCO3)nc(SCc2cc(-c3ccc(F)cc3)[nH]n2)[nH]c1=O [Compound I-50]"
  CC50 at 3 days: "78 µM"

From here, focus on the item given below.
Give the reported value of CC50 at 3 days for this record: CCc1c(Cc2cc(F)cc(F)c2)nc(SCc2n[nH]c(-c3ccc(F)c(F)c3)c2Cl)[nH]c1=O [Compound I-57] 81.1 µM
